measurement_protocol: qHTS assay for small molecule disruptors of the mitochondrial membrane potential - 5 hr assay (AID 651755); also: nearly all actives have a fitted effect of over 40% in size
protocol_conditions: JC-1-type ratio dye; series mostly up to 92.2 µM
Results filed as inconclusive are left out. Active and inactive are the calls of the source. Calls follow the shape of the full dose curve.
Your answer must be one of the following: active, inactive

Query: recorded result category for CC(=O)[O][Hg][c]1ccccc1 in this test active

Could you do the same for Nc1ccc([N+](=O)[O-])cc1O , please? active

Could you do the same for Nc1ccc(Sc2ccc(N)cc2)cc1 , please? inactive

Could you do the same for CN(C)NC(=O)CCC(=O)O , please? inactive

Could you do the same for Nc1ccc(Cl)cc1 , please? inactive

Could you do the same for CC(C)(O)C(=O)Nc1ccc([N+](=O)[O-])c(C(F)(F)F)c1 , please? active

Could you do the same for O=[N+]([O-])c1c2ccccc2cc2ccccc12 , please? active

Could you do the same for COc1ccc(C(c2ccc(OC)cc2)C(Cl)(Cl)Cl)cc1 , please? active

Could you do the same for CN(C)[C@@H]1C(=O)C(C(N)=O)=C(O)[C@@]2(O)C(=O)C3=C(O)c4c(O)cccc4[C@@](C)(O)[C@H]3[C@H](O)[C@@H]12 , please? inactive

Could you do the same for CC(C)(c1ccc(O)cc1)c1ccc(O)cc1 , please? active

// provenance: PubChem BioAssay (NCATS)
